B1: VPS39 (parent)
chain: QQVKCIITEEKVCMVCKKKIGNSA

- Variants of: B1
- EXPERIMENTAL_PROTOCOL: protein stability index of a GFP-peptide fusion (GPS, HEK-293T) (PSI 1-6); higher = more stable;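 also: lentivirally expressed fusions sorted by FACS into six bins by GFP to DsRed ratio, PSI derived from sequencing read proportions per bin multiplied by bin number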
- REPORTED_CONDITIONS: c terminus: a fixed tail appended
QUANTITY_NAME: protein stability index

K19C    3.48
Q2C    4.17
E10C    3.05
C16D    4.91
N22S    2.62
V3K    2.89
V15D    3.34
E10M    2.4
K19Y    2.09
E9V    1.95
K11V    2.39
T8G    3.42
V3N    2.8
N22R    1.84
S23D    3.6
V15T    3.68
G21K    3.08
C16Y    3.69
V12W    1.98
K11C    4.08
K17Q    3.11
T8C    2.48

# credit: the supplement of paper PMC10567573
